Item-by-item account of 0.2 nM NGS
Target Under Test: T1, hIL-7R (Example 11) (human, UniProt P16871 21-239)
T1 construct: Called full length hIL-7R for the mRNA display and hIL-7R for the Biacore runs; also called full length hIL-7R; human IL-7R
T1 chain: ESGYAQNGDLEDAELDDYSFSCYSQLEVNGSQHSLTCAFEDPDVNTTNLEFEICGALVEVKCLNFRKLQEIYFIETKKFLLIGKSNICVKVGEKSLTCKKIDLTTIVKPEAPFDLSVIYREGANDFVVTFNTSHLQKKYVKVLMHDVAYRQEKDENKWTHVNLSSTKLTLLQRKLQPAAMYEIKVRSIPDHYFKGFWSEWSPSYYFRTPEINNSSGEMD
Measurement Protocol: NGS enrichment ratio of the mutation in the scFv library selected at 0.2 nM hIL-7R [cont'd]
Lab note: jot down the number only; don't add units.

18B1 LC L54A (antibody, human IgG1, kappa, V domains shown) VH: EVQLVESGGGLVQPGRSLRLSCAASGFTFDDHAMHWVRQAPGKGLEWVSGISWNSRGIGYADSVKGRFTIFRDNAKNSLYLQMNSLRAEDTALYYCAKDEYSRGYYVLDVWGQGTTVTVSS VL: AIQLTQSPSSLSASVGDRVTITCRASQGISSALAWYQQKPGKAPKLLIYDASSAESGVPSRFSGSGSGTDFTLTISSLQPEDFATYYCQQFNSYPLWITFGQGTRLEIKR | 0.99
18B1 LC S52A (antibody, human IgG1, kappa, V domains shown) VH: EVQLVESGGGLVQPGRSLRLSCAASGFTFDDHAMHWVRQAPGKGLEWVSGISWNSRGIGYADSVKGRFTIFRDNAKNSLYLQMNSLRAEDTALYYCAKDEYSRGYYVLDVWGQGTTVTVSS VL: AIQLTQSPSSLSASVGDRVTITCRASQGISSALAWYQQKPGKAPKLLIYDAASLESGVPSRFSGSGSGTDFTLTISSLQPEDFATYYCQQFNSYPLWITFGQGTRLEIKR | 1.09

Turning now to a further binder:
Entry under test: 18B1 LC E55A (antibody, human IgG1, kappa, V domains shown) VH: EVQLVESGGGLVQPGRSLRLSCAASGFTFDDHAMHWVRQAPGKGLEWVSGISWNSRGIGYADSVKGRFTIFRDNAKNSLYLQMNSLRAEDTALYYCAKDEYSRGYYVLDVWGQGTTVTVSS VL: AIQLTQSPSSLSASVGDRVTITCRASQGISSALAWYQQKPGKAPKLLIYDASSLASGVPSRFSGSGSGTDFTLTISSLQPEDFATYYCQQFNSYPLWITFGQGTRLEIKR . Its 0.2 nM NGS was 0.23
